Listing: Ki of selected compounds
# TARGET_OR_TEST_SYSTEM: Cathepsin L (Homo sapiens)
The reply should be a number in nM, with the unit left off.

COMPOUND	TARGET_OR_TEST_SYSTEM	VALUE_OBSERVED
CC[C@H](C)[C@H](NC(=O)C(=O)C(Cc1ccccc1)NC(=O)C(Cc1ccccc1)NC(=O)Cc1ccccc1)C(=O)N1CCC[C@H]1C(=O)O (stereo partly drawn) [PHELIX156]	Cathepsin L (Homo sapiens)	1.58
CC(C)CC(NC(=O)OCc1ccccc1)C(=O)NC(C)C(=O)C(=O)NCC(=O)NC(Cc1ccc2ccccc2c1)C(N)=O (stereo not drawn) [PHELIX184]	Cathepsin L (Homo sapiens)	4.85

Hello, I am looking for reported Ki with Cathepsin L (Homo sapiens) for CC(NC(=O)C(Cc1ccccc1F)NC(=O)Cc1ccccc1)C(=O)C(=O)NC(Cc1ccccc1)C(=O)NC(C)(C)C(N)=O (stereo not drawn) [PHELIX207] . Could you help?
15

Can you check CCC(C)C(NC(=O)C(CC(C)C)NC(=O)OCc1ccccc1)C(=O)C(=O)NC(C)(C)C(=O)NC(Cc1ccc2ccccc2c1)C(N)=O (stereo not drawn) [PHELIX296] next?
1720

Can you check CC(C)CC(NC(=O)Cc1ccc(-c2ccccc2)cc1)C(=O)NC(C)C(=O)C(=O)NCC(=O)NC(Cc1ccc2ccccc2c1)C(N)=O (stereo not drawn) [PHELIX253] next?
21.5

Can you check CCC(C)C(NC(=O)C(Cc1c[nH]cn1)NC(=O)OCc1ccccc1)C(=O)C(=O)NCC(=O)NC(Cc1ccc2ccccc2c1)C(N)=O (stereo not drawn) [PHELIX311] next?
106

---

# TARGET_OR_TEST_SYSTEM: Cathepsin L (Homo sapiens, UniProt P07711)
# Sequence (P07711 114-333, species assumed): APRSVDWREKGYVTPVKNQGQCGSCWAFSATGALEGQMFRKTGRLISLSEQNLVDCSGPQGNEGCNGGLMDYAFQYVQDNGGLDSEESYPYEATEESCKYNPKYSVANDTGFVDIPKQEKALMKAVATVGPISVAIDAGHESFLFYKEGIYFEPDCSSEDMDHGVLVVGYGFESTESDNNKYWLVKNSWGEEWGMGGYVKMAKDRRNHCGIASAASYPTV
# METHOD_NOTES: Cathepsin L enzyme assay
# Format: biochemical
# EXPERIMENTAL_CONDITIONS: Ki by Morrison equation; pH 5.5, substrate Z-Phe-Arg-Amc; read-out: Cat L
# From the text: Two wells contained DMSO only for controls. Velocity was converted to μM/sec.
*1 amine or outer side, *2 acyl side, *3 side chain or, on linkers, in order; H or OH if unused. Where a SMILES comes first, the peptide text is derived from it. [ ]: non-standard residue; d: D form. The star is where a group is joined. ξ: configuration not given here. ξβ3hPhe(2-oxo) = O=C(C(=O)[*:2])C(Cc1ccccc1)N[*:1]; 2Nal = N[CH](Cc1ccc2ccccc2c1)C(=O)O; X2 = C=CCOCC(N[*:1])C(=O)C(=O)[*:2]; Cbz = O=C(OCc1ccccc1)*; PhAc = O=C(Cc1ccccc1)*; Allyl = C=CC*
REPORTED_METRIC: Ki (nM)
The reply should be a number in nM, with the unit left off.

Recorded Ki of C=CCOCC(NC(=O)C(CC(C)C)NC(=O)C(Cc1ccc(OCC=C)cc1)NC(=O)Cc1ccccc1)C(=O)C(=O)NCC(=O)NC(Cc1ccc2ccccc2c1)C(N)=O (centres unmarked) [PHELIX202] (PhAc-Y(Allyl)L[X2]G[2Nal]-NH2; configuration not given here) , please.
24

Can you check CC(NC(=O)C(Cc1ccccc1)NC(=O)Cc1ccccc1)C(=O)C(=O)NC(Cc1ccc(F)cc1)C(=O)NC(Cc1ccc(-c2ccccc2)cc1)C(N)=O (centres unmarked) next?
0.04

Can you check CCC(C)C(NC(=O)C(NC(=O)Cc1ccccc1)C(C)(C)C)C(=O)C(=O)NCC(=O)NC(Cc1ccc2ccccc2c1)C(N)=O (centres unmarked) next?
273

Can you check CC(C)CC(NC(=O)OCc1ccccc1)C(=O)NC(Cc1ccccc1)C(=O)C(=O)NC(C)C(=O)NC(CCC(=O)O)C(=O)NC(CCCNC(=N)N)C(N)=O (stereo not drawn) [PHELIX252] (Cbz-L[ξβ3hPhe(2-oxo)]AER-NH2; configuration not given here) next?
5.03

Can you check CCC(C)C(NC(=O)C(CC(C)C)NC(=O)Cc1ccncc1)C(=O)C(=O)NCC(=O)NC(Cc1ccc2ccccc2c1)C(N)=O (centres unmarked) next?
0.59

Can you check C=CCOCC(NC(=O)C(=O)C(COCC=C)NC(=O)C(CC(C)C)NC(=O)OCc1ccccc1)C(=O)NC(Cc1ccc2ccccc2c1)C(N)=O (centres unmarked) next?
0.08

Can you check CCC(C)C(NC(=O)C(CC(C)C)NC(=O)OCc1ccccc1)C(=O)C(=O)N(C)CC(=O)NC(Cc1ccc2ccccc2c1)C(N)=O (centres unmarked) next?
5910

Can you check CC(NC(=O)C(Cc1ccccc1)NC(=O)Cc1ccccc1)C(=O)C(=O)NC(Cc1ccc(C(F)(F)F)cc1)C(=O)NC(Cc1ccc(-c2ccccc2)cc1)C(N)=O (centres unmarked) next?
2.48

Can you check CC(NC(=O)C(Cc1ccccc1)NC(=O)Cc1ccccc1)C(=O)C(=O)NC(Cc1ccccc1)C(=O)NC(Cc1ccc(C(C)(C)C)cc1)C(N)=O (centres unmarked) next?
0.02

Can you check CCC(C)C(NC(=O)C(CC(C)C)NC(=O)OCc1ccccc1)C(=O)C(=O)NC(C)C(=O)NC(Cc1ccc2ccccc2c1)C(N)=O (centres unmarked) next?
0.84

Can you check CCC(C)C(NC(=O)C(CC(C)C)NC(=O)OCc1ccccc1)C(=O)C(=O)NC(Cc1cc2ccccc2[nH]1)C(N)=O (centres unmarked) next?
3.53

---

Listing: Ki of selected compounds
# TARGET_OR_TEST_SYSTEM: Cathepsin B (Homo sapiens, UniProt P07858)
# METHOD_NOTES: Cathepsin B enzyme assay
# EXPERIMENTAL_CONDITIONS: Cat B (μM), Ki by Morrison equation; pH 6.0, substrate Z-Phe-Arg-Amc
The reply should be a number in µM, with the unit left off.

Use these answered entries as a reference point.
COMPOUND	TARGET_OR_TEST_SYSTEM	UNITS_LABEL	Ki
C=CCOCC(NC(=O)C(=O)C(COCC=C)NC(=O)C(CC(C)C)NC(=O)OCc1ccccc1)C(=O)NC(Cc1ccc2ccccc2c1)C(N)=O (stereo not drawn) [PHELIX228]	Cathepsin B (Homo sapiens, UniProt P07858)	µM	0.276
Cc1cccc(CC(=O)NC(Cc2ccccc2)C(=O)NC(C)C(=O)C(=O)NC(Cc2ccccc2)C(=O)NC(C)(C)C(N)=O)c1 (stereo not drawn) [PHELIX225]	Cathepsin B (Homo sapiens, UniProt P07858)	µM	0.299

# input for lookup
Recorded Ki of CCC(C)C(NC(=O)C(=O)C(C)NC(=O)C(Cc1cccc(C#N)c1)NC(=O)Cc1ccccc1)C(=O)NC(C)(C)C(=O)O (stereo not drawn) [PHELIX176] , please.
0.0378

---

# TARGET_OR_TEST_SYSTEM: Cat S (Homo sapiens)
# Sequence (P25774 115-331): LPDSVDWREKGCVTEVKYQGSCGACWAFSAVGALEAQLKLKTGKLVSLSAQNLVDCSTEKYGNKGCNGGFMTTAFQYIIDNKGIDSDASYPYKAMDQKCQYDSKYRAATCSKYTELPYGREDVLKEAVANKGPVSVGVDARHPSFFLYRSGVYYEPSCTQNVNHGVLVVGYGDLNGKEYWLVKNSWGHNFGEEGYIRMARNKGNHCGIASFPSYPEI
pKi: −log10 of the molar value.
Label rule, in plain words: pKi of 8 and up is fulfilled, under 8 is not fulfilled.

Below, 2 compounds whose answers are already recorded.
COMPOUND	LABEL_VALUE
CC(NC(=O)C(Cc1ccc(F)cc1)NC(=O)Cc1ccccc1)C(=O)C(=O)NC(Cc1ccccc1)C(=O)NC(C)(C)C(N)=O (stereo not drawn) [PHELIX208]	fulfilled
CC(NC(=O)C(Cc1ccccc1)NC(=O)Cc1ccccc1)C(=O)C(=O)NC(Cc1ccc(-c2ccccc2)cc1)C(=O)NC(C)(C)C(N)=O (stereo not drawn) [PHELIX241]	not fulfilled

Entry CC(NC(=O)C(Cc1ccccc1)NC(=O)Cc1ccccc1)C(=O)C(=O)NC(Cc1ccccc1)C(=O)NC(Cc1ccc(C(C)(C)C)cc1)C(N)=O (stereo not drawn) [PHELIX221] : is its pKi no less than 8?
fulfilled

Can you check CC(C)CC(=O)NC(Cc1ccccc1)C(=O)NC(C)C(=O)C(=O)NC(Cc1ccccc1)C(=O)NC(C)(C)C(N)=O (stereo not drawn) [PHELIX235] next?
not fulfilled

Can you check CC(C)CC(NC(=O)OCc1ccccc1)C(=O)NC(C)C(=O)C(=O)NCC(=O)NC(Cc1ccc2ccccc2c1)C(N)=O (stereo not drawn) [PHELIX184] next?
fulfilled

Can you check CC(NC(=O)C(Cc1ccccc1)NC(=O)Cc1ccccc1)C(=O)C(=O)NC(Cc1cc2ccccc2[nH]1)C(=O)NC(C)(C)C(N)=O (stereo not drawn) [PHELIX232] next?
not fulfilled

---

Listing: IC50 of selected compounds
# Test system: MERS WT
# METHOD_NOTES: microbe, parasite or virus in culture
# Assay type: cell-based
# EXPERIMENTAL_CONDITIONS: Middle East respiratory syndrome-related coronavirus, read-out: MERS WT (μM)
The reply should be a number in µM, with the unit left off.

COMPOUND	IC50 (µM)
CC(C)CC(NC(=O)Cc1ccccc1)C(=O)NC(C)C(=O)C(=O)NC(C)C(=O)NC(C)(C)C(N)=O (centres unmarked)	407

Recorded IC50 of CC[C@H](C)[C@H](NC(=O)C(=O)C(Cc1ccccc1)NC(=O)C(Cc1ccccc1)NC(=O)Cc1ccccc1)C(=O)N1CCCC1C(N)=O (some centres unmarked) , please.
1.8
